# System: MDA-MB-468 breast
# test name: NCI-60 one-dose screen, 48 h (100 = growth as untreated, 0 = no growth, -100 = all killed)
# applied conditions: 10 µM unless noted
This is part of a sample that, as a whole, favours compounds with a hit. Of some 83,000 tested, about 20% had one in any assay.
measurement kind: growth (%)
Write down the numeric answer in % and omit the unit.

// worked examples, growth included
| molecule | growth [%] |
| --- | --- |
| CCN(CC)CCNc1c(C)cc(CO)c(Cl)c1C | -8.33 |
| CCN(CC)CCCC(C)Nc1c2ccc(Cl)cc2nc2ccc(OC)cc12 (centres undefined) | -63.3 |
| O=[N+]([O-])C1CC2C=CC1C2 (centres undefined) | 99.5 |
| COc1ccccc1Nc1cc(O)c2c(=O)cc(-c3ccccc3)oc2c1 | -1.72 |
| O=C(c1ccc(Cl)cc1)C1[C@H](c2ccc(Cl)cc2)[C@@H](c2ccccc2)NC12C(=O)Nc1ccccc12 (some centres undefined) | 50.7 |
| COc1cc2nc(SCc3cc(OC)c(OC)c(OC)c3)n(-c3ccccc3OC)c(=O)c2cc1OC | 97.9 |
| COc1ccc2c(c1)OC1=C(C(=O)OC1)C2c1cc(OC)c2c(c1)OCO2 (centres undefined) | -7.16 |
| CCOC(=O)C(C(C)=O)c1nc2sc3cc(Cl)c(Cl)cc3n2c(=O)c1C#N (centres undefined) | 89.5 |

Tell me reported growth for CC(C(=O)n1cc(-c2ccccc2)c(-c2ccccc2)c1)c1ccccc1 (centres undefined) , tested with MDA-MB-468 breast.
104
